Molecular target: Rhodobacter capsulatus xanthine oxidoreductase (RcXOR) (Rhodobacter capsulatus)
Sequence (O54051 1-777): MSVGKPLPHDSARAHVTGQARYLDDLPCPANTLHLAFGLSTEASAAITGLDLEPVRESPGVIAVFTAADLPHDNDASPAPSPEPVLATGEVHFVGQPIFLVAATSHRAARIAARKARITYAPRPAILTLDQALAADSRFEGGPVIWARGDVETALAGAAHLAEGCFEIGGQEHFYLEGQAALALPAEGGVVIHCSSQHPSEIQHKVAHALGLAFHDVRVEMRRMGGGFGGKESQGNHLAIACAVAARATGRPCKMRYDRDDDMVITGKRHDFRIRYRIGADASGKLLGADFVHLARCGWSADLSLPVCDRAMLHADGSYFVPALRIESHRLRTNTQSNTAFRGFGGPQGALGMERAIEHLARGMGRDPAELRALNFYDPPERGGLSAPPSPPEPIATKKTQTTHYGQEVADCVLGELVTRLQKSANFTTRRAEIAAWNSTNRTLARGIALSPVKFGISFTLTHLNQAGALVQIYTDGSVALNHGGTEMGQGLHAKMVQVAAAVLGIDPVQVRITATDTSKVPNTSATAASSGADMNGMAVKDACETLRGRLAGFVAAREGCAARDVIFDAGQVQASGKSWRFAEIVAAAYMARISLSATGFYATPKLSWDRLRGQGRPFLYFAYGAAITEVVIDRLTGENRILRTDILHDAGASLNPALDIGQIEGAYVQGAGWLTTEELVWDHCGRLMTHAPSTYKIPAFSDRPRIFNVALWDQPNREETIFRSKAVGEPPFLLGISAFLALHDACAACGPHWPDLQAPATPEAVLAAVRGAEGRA
Sequence (O54050 1-462 partner): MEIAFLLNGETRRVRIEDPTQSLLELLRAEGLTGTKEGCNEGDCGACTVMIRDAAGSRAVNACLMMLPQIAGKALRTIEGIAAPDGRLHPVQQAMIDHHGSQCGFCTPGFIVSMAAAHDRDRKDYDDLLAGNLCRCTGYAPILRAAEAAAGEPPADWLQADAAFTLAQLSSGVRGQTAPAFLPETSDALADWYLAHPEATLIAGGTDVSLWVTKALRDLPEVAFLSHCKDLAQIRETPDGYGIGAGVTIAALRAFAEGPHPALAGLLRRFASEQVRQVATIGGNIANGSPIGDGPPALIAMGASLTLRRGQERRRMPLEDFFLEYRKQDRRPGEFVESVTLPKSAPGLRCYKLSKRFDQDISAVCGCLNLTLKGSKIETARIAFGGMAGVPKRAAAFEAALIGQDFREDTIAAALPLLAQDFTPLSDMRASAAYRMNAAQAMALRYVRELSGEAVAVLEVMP
propertyLabel: Ki (µM)
// return numeric value only (unit: µM, not printed)

Inquiry: Value lookup for Ki; key = `Cc1nc(-c2ccc(OCC(C)C)c(C#N)c2)sc1C(=O)O`
Reply text: 17.5
